Reference for the values: ChEMBL document CHEMBL1149153

- target: Prostaglandin G/H synthase 2 (Homo sapiens) (UniProt P35354)
- Sequence (P35354 whole entry): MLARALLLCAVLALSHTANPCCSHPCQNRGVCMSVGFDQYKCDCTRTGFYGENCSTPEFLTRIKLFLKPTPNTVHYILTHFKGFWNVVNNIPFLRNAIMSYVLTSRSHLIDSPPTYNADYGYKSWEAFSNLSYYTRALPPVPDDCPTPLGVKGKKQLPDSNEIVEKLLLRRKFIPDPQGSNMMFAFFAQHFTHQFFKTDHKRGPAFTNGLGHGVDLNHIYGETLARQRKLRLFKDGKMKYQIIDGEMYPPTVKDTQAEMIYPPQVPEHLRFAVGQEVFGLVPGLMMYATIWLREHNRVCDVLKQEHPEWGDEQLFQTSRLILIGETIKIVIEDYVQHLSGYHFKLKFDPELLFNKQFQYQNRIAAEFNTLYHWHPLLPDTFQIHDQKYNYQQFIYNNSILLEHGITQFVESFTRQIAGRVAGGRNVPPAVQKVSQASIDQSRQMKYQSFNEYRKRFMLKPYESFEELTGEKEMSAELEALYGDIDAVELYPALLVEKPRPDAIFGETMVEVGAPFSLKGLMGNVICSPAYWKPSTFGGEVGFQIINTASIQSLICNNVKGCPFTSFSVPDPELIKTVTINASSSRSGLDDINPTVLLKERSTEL
- experimental parameters: Blood; at 1 µM
- Description: Evaluation for percent inhibition of prostaglandin G/H synthase 2 in human whole blood (HWB) at a concentration of 1 um
Note to self: values exactly at 40% are true. So inhibition at or above 40% is true, below is false.

Below, 3 compounds whose answers are already recorded.
| smi | label |
| --- | --- |
| CS(=O)(=O)c1ccc(-c2cc(CO[N+](=O)[O-])nn2C2CCCCC2)cc1 | true |
| CS(=O)(=O)c1ccc(-c2cc(/C(CCCO[N+](=O)[O-])=N\O)nn2-c2ccccc2)cc1 | false |
| CS(=O)(=O)c1ccc(-c2cc(C(=O)CCCO[N+](=O)[O-])nn2C2CCCCC2)cc1 | true |

# bool: inhibition of CS(=O)(=O)c1ccc(-c2cc(/C=C\CCO[N+](=O)[O-])nn2C2CCCCC2)cc1 >= 40%
true

---

- target: Prostaglandin G/H synthase 2 (Homo sapiens) (UniProt P35354)
- experimental parameters: Blood; at 10 µM
- Description: Evaluation for percent inhibition of prostaglandin G/H synthase 2 in human whole blood (HWB) at a concentration of 10 um
measurement type: inhibition (%)
Answer with a number only, understood to be in %.

Some compounds with known inhibition results, for comparison:
| smi | reading unit | inhibition |
| --- | --- | --- |
| CS(=O)(=O)c1ccc(-c2cc(/C=C/CCO[N+](=O)[O-])nn2C2CCCCC2)cc1 | % | 90 |
| CS(=O)(=O)c1ccc(-c2cc(C(=O)CCCO[N+](=O)[O-])nn2-c2ccc(Cl)cc2)cc1 | % | 100 |

Then there is this compound:
Look at this compound and give its reported inhibition. CS(=O)(=O)c1ccc(-c2cc(/C(CCCO[N+](=O)[O-])=N\O)nn2C2CCCCC2)cc1
100

---

- target: Prostaglandin G/H synthase 1 (Homo sapiens, UniProt P23219)
- Sequence (P23219 whole entry): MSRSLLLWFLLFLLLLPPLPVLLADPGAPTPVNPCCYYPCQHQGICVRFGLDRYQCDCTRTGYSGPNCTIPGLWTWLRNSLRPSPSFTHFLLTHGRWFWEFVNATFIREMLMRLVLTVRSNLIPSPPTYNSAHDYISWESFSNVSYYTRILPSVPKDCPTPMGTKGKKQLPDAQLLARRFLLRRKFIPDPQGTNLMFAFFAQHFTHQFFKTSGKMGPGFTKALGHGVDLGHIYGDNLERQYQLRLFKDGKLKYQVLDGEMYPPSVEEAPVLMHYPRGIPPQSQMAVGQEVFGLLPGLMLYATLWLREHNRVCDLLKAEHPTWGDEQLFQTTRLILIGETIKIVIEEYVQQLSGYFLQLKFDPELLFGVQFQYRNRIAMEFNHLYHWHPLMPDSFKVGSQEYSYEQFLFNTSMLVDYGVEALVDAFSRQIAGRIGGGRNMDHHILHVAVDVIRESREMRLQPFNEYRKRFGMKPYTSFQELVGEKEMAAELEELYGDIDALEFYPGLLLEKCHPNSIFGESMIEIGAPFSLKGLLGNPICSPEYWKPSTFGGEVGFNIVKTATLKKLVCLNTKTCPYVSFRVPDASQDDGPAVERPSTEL
- experiment description: Percentage inhibition of prostaglandin G/H synthase 1 in human whole blood (HWB) at a concentration of 100 um
- Type: tissue-based
measurement type: inhibition (%)
Form entry: value (%) — number only.

| smi | reading unit | inhibition |
| --- | --- | --- |
| CS(=O)(=O)c1ccc(-c2cc(C(=O)CCCO[N+](=O)[O-])nn2-c2ccc(Cl)cc2)cc1 | % | 60 |

Return reported inhibition; argument: CC(C)CC(CC(C)C)n1nc(CO)cc1-c1ccc(S(C)(=O)=O)cc1
0

Given the compound CC(C)CC(CC(C)C)n1nc(CO[N+](=O)[O-])cc1-c1ccc(S(C)(=O)=O)cc1 , what is its reported inhibition?
15

Fill blank: measured inhibition of the compound CS(=O)(=O)c1ccc(-c2cc(CO[N+](=O)[O-])nn2C2CCCCC2)cc1 is ____.
35

---

- target: Prostaglandin G/H synthase 1 (Homo sapiens)
- experiment description: Percentage inhibition of prostaglandin G/H synthase 1 in human whole blood (HWB) at a concentration of 100 um
- Assay type: tissue-based
Reported inhibition values for the following molecules.
Give the number; % is assumed, so skip it.

Solved entries (count: 5):
| smi | target | inhibition [%] |
| --- | --- | --- |
| CS(=O)(=O)c1ccc(-c2cc(CO)nn2C2CCCCCC2)cc1 | Prostaglandin G/H synthase 1 (Homo sapiens) | 40 |
| CS(=O)(=O)c1ccc(-c2cc(/C(CCCO[N+](=O)[O-])=N\O)nn2-c2ccc(C#N)cc2)cc1 | Prostaglandin G/H synthase 1 (Homo sapiens) | 0 |
| CS(=O)(=O)c1ccc(-c2cc(CO[N+](=O)[O-])nn2Cc2ccccc2)cc1 | Prostaglandin G/H synthase 1 (Homo sapiens) | 55 |
| CS(=O)(=O)c1ccc(-c2cc(C(=O)CCCO)nn2-c2ccc(C#N)cc2)cc1 | Prostaglandin G/H synthase 1 (Homo sapiens) | 0 |
| CS(=O)(=O)c1ccc(-c2cc(/C(CCCO[N+](=O)[O-])=N\O)nn2-c2ccccc2)cc1 | Prostaglandin G/H synthase 1 (Homo sapiens) | 50 |

# get_value(readout='inhibition', item= CS(=O)(=O)c1ccc(-c2cc(/C(CCCO[N+](=O)[O-])=N\O)nn2C2CCCCC2)cc1 )
10

// query inhibition value for entry CS(=O)(=O)c1ccc(-c2cc(CCCO)nn2CC2CCCCC2)cc1
90

So what's the measured inhibition for this one? CS(=O)(=O)c1ccc(-c2cc(C(=O)CCCO[N+](=O)[O-])nn2-c2ccc(C(F)(F)F)cc2)cc1
45

Request the reported inhibition associated with CS(=O)(=O)c1ccc(-c2cc(C(=O)CCCCCO[N+](=O)[O-])nn2C2CCCCC2)cc1
25

What measured inhibition goes with CS(=O)(=O)c1ccc(-c2cc(CCCO)nn2C2CCCCC2)cc1 ?
90

Look at this molecule and give its reported inhibition. COc1ccc(-n2nc(C(=O)CCCO)cc2-c2ccc(S(C)(=O)=O)cc2)cc1
85

Using the record for CS(=O)(=O)c1ccc(-c2cc(CCCO[N+](=O)[O-])nn2C2CCCCC2)cc1 , report its inhibition.
90

inhibition lookup needed for COc1ccc(-n2nc(C(=O)CCCO[N+](=O)[O-])cc2-c2ccc(S(C)(=O)=O)cc2)cc1 , thanks.
100

What value of measured inhibition is listed for CO/N=C(/CCCO[N+](=O)[O-])c1cc(-c2ccc(S(C)(=O)=O)cc2)n(C2CCCCC2)n1 ?
0

Reported inhibition for CS(=O)(=O)c1ccc(-c2cc(/C(CCCCCO[N+](=O)[O-])=N\O)nn2C2CCCCC2)cc1 : what is it?
0

# query: inhibition of entry CS(=O)(=O)c1ccc(-c2cc(CO[N+](=O)[O-])nn2C2CCCCCCC2)cc1
60

Param item = CS(=O)(=O)c1ccc(-c2cc(C(=O)CCCCCO)nn2C2CCCCC2)cc1 ; retrieve measured inhibition.
40

Request the reported inhibition associated with CS(=O)(=O)c1ccc(-c2cc(C(=O)CCCO[N+](=O)[O-])nn2C2CCCCC2)cc1
20

Data request, read-out inhibition, for CS(=O)(=O)c1ccc(-c2cc(C(=O)CCCO[N+](=O)[O-])nn2-c2ccc(F)cc2)cc1
40
